Where do these numbers come from? They come from patent US6914045B2.

# Tested on: Staphylococcus sp.
# measurement protocol: in vitro antibacterial evaluation, MIC by broth dilution
# Assay type: cell-based
# conditions used: broth dilution, 18 hours at 35° C.; strain GC 4545
// returns F unless MIC Staphylococcus aureus (GC 4545) is strictly below 2 µg/mL, in which case T

Would you please look over these solved cases?
In plain terms, does CC(c1ccccc1)C1NC(=O)CNC(=O)C(CO)NC(=O)C(C(O)C2CNC(=N)N2C2OC(CO)C(O)C(O)C2O)NC(=O)C(C(O)C2CNC(=N)N2)NC(=O)C(Cc2ccc(OC3OC(CO)C(OC4OC(COCC=Cc5ccc(N(C)C)cc5)C(O)C(O)C4O)C(O)C3O)cc2)NC1=O (centres unmarked) come in under 2 µg/mL for MIC Staphylococcus aureus (GC 4545)?
F

In plain terms, does CC(c1ccccc1)C1NC(=O)CNC(=O)C(CO)NC(=O)C(C(O)C2CNC(=N)N2C2OC(CO)C(O)C(O)C2O)NC(=O)C(C(O)C2CNC(=N)N2)NC(=O)C(Cc2ccc(OC3OC(CO)C(OC4OC5COC(C6CCCC6)OC5C(O)C4O)C(O)C3O)cc2)NC1=O (centres unmarked) come in under 2 µg/mL for MIC Staphylococcus aureus (GC 4545)?
T

In plain terms, does CC(c1ccccc1)C1NC(=O)CNC(=O)C(CO)NC(=O)C(C(O)C2CNC(=N)N2C2OC(CO)C(O)C(O)C2O)NC(=O)C(C(O)C2CNC(=N)N2)NC(=O)C(Cc2ccc(OC3OC(CO)C(OC4OC5COC(c6ccc7ccccc7c6)OC5C(O)C4O)C(O)C3O)cc2)NC1=O (centres unmarked) come in under 2 µg/mL for MIC Staphylococcus aureus (GC 4545)?
T

In plain terms, does CC(C)CC(=O)OC1C(OC2C(CO)OC(Oc3ccc(CC4NC(=O)C(C(C)c5cccs5)NC(=O)CNC(=O)C(CO)NC(=O)C(C(O)C5CNC(=N)N5C5OC(CO)C(O)C(O)C5O)NC(=O)C(C(O)C5CNC(=N)N5)NC4=O)cc3)C(O)C2O)OC(CO)C(O)C1O (centres unmarked) [Example 265a] come in under 2 µg/mL for MIC Staphylococcus aureus (GC 4545)?
F

In plain terms, does CC(C)=CCCC(C)=CCOc1ccc(C2OCC3OC(OC4C(CO)OC(Oc5ccc(CC6NC(=O)C(C(C)c7ccccc7)NC(=O)CNC(=O)C(CO)NC(=O)C(C(O)C7CNC(=N)N7C7OC(CO)C(O)C(O)C7O)NC(=O)C(C(O)C7CNC(=N)N7)NC6=O)cc5)C(O)C4O)C(O)C(O)C3O2)cc1 (centres unmarked) come in under 2 µg/mL for MIC Staphylococcus aureus (GC 4545)?
F

In plain terms, does CC(C)=CCCC1OCC2OC(OC3C(CO)OC(Oc4ccc(CC5NC(=O)C(C(C)c6ccccc6)NC(=O)CNC(=O)C(CO)NC(=O)C(C(O)C6CNC(=N)N6C6OC(CO)C(O)C(O)C6O)NC(=O)C(C(O)C6CNC(=N)N6)NC5=O)cc4)C(O)C3O)C(O)C(O)C2O1 (centres unmarked) come in under 2 µg/mL for MIC Staphylococcus aureus (GC 4545)?
F

In plain terms, does CC(c1ccccc1)C1NC(=O)CNC(=O)C(CO)NC(=O)C(C(O)C2CNC(=N)N2C2OC(CO)C(O)C(O)C2O)NC(=O)C(C(O)C2CNC(=N)N2)NC(=O)C(Cc2ccc(OC3OC(CO)C(OC4OC(COC(=O)NCc5ccccc5)C(O)C(O)C4O)C(O)C3O)cc2)NC1=O (centres unmarked) [Example 257b] come in under 2 µg/mL for MIC Staphylococcus aureus (GC 4545)?
T

In plain terms, does CC(C)=CCCC(C)C1OCC2OC(OC3C(CO)OC(Oc4ccc(CC5NC(=O)C(C(C)c6ccccc6)NC(=O)CNC(=O)C(CO)NC(=O)C(C(O)C6CNC(=N)N6C6OC(CO)C(O)C(O)C6O)NC(=O)C(C(O)C6CNC(=N)N6)NC5=O)cc4)C(O)C3O)C(O)C(O)C2O1 (centres unmarked) come in under 2 µg/mL for MIC Staphylococcus aureus (GC 4545)?
F

Further cases:
In plain terms, does COc1ccc2cc(COC3C(OC4C(CO)OC(Oc5ccc(CC6NC(=O)C(C(C)c7ccccc7)NC(=O)CNC(=O)C(CO)NC(=O)C(CC7CNC(=N)N7C7OC(CO)C(O)C(O)C7O)NC(=O)C(CC7CNC(=N)N7)NC6=O)cc5)C(O)C4O)OC(CO)C(O)C3O)ccc2c1 (centres unmarked) [Example 245c] come in under 2 µg/mL for MIC Staphylococcus aureus (GC 4545)?
F

In plain terms, does CCCCCC1OCC2OC(OC3C(CO)OC(Oc4ccc(CC5NC(=O)C(C(C)c6ccccc6)NC(=O)CNC(=O)C(CO)NC(=O)C(C(O)C6CNC(=N)N6C6OC(CO)C(O)C(O)C6O)NC(=O)C(C(O)C6CNC(=N)N6)NC5=O)cc4)C(O)C3O)C(O)C(O)C2O1 (centres unmarked) come in under 2 µg/mL for MIC Staphylococcus aureus (GC 4545)?
T
